# testedOn: recombinant human sEH (Homo sapiens)
# Sequence (P34913 whole entry): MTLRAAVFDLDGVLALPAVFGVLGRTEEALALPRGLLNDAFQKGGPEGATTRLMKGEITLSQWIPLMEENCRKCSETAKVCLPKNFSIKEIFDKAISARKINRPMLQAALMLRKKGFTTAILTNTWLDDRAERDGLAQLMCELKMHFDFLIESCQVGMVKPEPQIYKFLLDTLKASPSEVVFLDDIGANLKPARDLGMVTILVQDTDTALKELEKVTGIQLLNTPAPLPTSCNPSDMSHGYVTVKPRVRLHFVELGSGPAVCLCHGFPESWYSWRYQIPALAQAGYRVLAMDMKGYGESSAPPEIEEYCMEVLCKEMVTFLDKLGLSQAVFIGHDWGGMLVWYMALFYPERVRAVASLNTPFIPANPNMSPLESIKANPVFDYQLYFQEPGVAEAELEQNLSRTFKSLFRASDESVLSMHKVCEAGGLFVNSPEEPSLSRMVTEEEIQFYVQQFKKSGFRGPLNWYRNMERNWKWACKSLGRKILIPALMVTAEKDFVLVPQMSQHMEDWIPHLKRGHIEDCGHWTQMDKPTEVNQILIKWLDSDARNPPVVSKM
# assayProtocol: In vitro evaluation test for sEH inhibitory activity
# conditions: recombinant human sEH 0.026 μg/mL, fluorescent substrate 6.25 μmol/L, room temperature
pIC50: −log10 of the molar value.
measureName: pIC50

Below, 2 molecules whose answers are already recorded.
CC(C)C(=O)NC1(C(=O)N2CCC[C@@H](C(=O)NCc3ccc(C#N)cc3OC(F)(F)F)C2)CC1
8.24
N#Cc1ccc(CNC(=O)[C@@H]2CCCN(C(=O)C3(C(F)(F)F)CC3)C2)c(OC(F)(F)F)c1
9.00

a: N#Cc1ccc(CNC(=O)[C@@H]2CCCN(C(=O)C3(NC(=O)CC4CC4)CC3)C2)c(OC(F)(F)F)c1
b: CC(C)(C(=O)N1CCC[C@@H](C(=O)NCc2ccc(C#N)cc2OC(F)(F)F)C1)n1cncn1
c: CC[C@@H](NC(C)=O)C(=O)N1CCC[C@@H](C(=O)NCc2ccc(C#N)cc2OC(F)(F)F)C1
d: CC(C)[C@@H](O)C(=O)N1CCC[C@@H](C(=O)NCc2ccc(C#N)cc2OC(F)(F)F)C1
Task: Rank descending by pIC50. Give the labels in the order requested.
Result: d, c, b, a

# credit: patent US20150065717A1
